Test system: vasopressor response of angiotensin II
Protocol text: AII Challenge: antagonism of angiotensin II vasopressor response;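 on Response Average Change: post-dose Angiotensin II-evoked rise in systolic blood pressure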
Assay type: in vivo
Condition context: 3 mg/kg I.V.; AII 0.05 mcg/kg IV; 240 min post dose
Description: Conscious Male Okamoto-Aoki SHR, 16-20 weeks old, weighing approximately 330 g are purchased from Charles River Labs (Wilmington, Mass.). Conscious rats are restrained in a supine position with elastic tape. The area at the base of the tail is locally anesthetized by subcutaneous infiltration with 2% procaine. […] The cannula is attached to a Statham P23 Db pressure transducer, and pulsatile blood pressure is recorded to 10-15 minutes with a Gould Brush recorder. […]
Property label: Response Average Change (mmHg)
Hi! Could you send only the number? It should be in mmHg, unit omitted.

Query: Supply reported Response Average Change belonging to this compound: CCCCc1nc2ccc([C@@H]3C[C@H]4CCCCN4O3)cc2c(=O)n1Cc1ccc(-c2ccccc2-c2nnn[nH]2)cc1 (relative stereo)
Result: 15

Query: For the compound CCCCc1nc2ccc([C@@H]3C[C@H]4c5ccccc5CCN4O3)cc2c(=O)n1Cc1ccc(-c2ccccc2-c2nnn[nH]2)cc1 (relative stereo) , give its reported Response Average Change.
Result: 12.5

Query: Fill in reported Response Average Change for this entry: CCCCc1nc2ccc([C@]3(C)C[C@@H]4CCCCN4O3)cc2c(=O)n1Cc1ccc(-c2ccccc2-c2nnn[nH]2)cc1 (relative stereo)
Result: 20

Query: Give a short answer stating reported Response Average Change for CCCCc1nc2ccc([C@@]3(C)C[C@@H]4CCCCN4O3)cc2c(=O)n1Cc1ccc(-c2ccccc2-c2nnn[nH]2)cc1 (relative stereo) .
Result: 7.5

Query: Output Response Average Change of CCCCc1nc2ccc([C@@]3(C)C[C@@H]4CCCN4O3)cc2c(=O)n1Cc1ccc(-c2ccccc2-c2nnn[nH]2)cc1 (relative stereo)
Result: 7.5

Query: State its Response Average Change: CCCCc1nc2ccc(C3(C)CC4c5ccccc5CCN4O3)cc2c(=O)n1Cc1ccc(-c2ccccc2-c2nnn[nH]2)cc1 (centres unmarked)
Result: 18

Query: Quote Response Average Change reported for CCCCc1nc2ccc([C@]3(C)C[C@@H]4CCCN4O3)cc2c(=O)n1Cc1ccc(-c2ccccc2-c2nnn[nH]2)cc1 (relative stereo) please.
Result: 18.5

Query: Fill in Response Average Change for record CCCCc1nc2ccc([C@]3(C)C[C@@H]4CCC(C)(C)N4O3)cc2c(=O)n1Cc1ccc(-c2ccccc2-c2nnn[nH]2)cc1 (relative stereo)
Result: 5

###

Tested on: vasopressor response of angiotensin II
Protocol text: AII Challenge: antagonism of angiotensin II vasopressor response
Format: in vivo
Condition context: Rattus norvegicus, po, 4 h, 5 mg/kg P.O.; AII 0.05 mcg/kg IV; 240 min post dose
Property label: inhibition in vivo at 5 mg/kg

Query: Output inhibition in vivo at 5 mg/kg of CCCCc1nc2ccc([C@@]3(C)C[C@@H]4CCCN4O3)cc2c(=O)n1Cc1ccc(-c2ccccc2-c2nnn[nH]2)cc1 (relative stereo)
Result: 93%

Query: Report measured inhibition in vivo at 5 mg/kg; entry is CCCCc1nc2ccc([C@@]3(C)C[C@@H]4CCC(C)(C)N4O3)cc2c(=O)n1Cc1ccc(-c2ccccc2-c2nnn[nH]2)cc1 (relative stereo)
Result: 89%

Query: Return value of inhibition in vivo at 5 mg/kg for input CCCCc1nc2ccc([C@@H]3C[C@H]4CCCN4O3)cc2c(=O)n1Cc1ccc(-c2ccccc2-c2nnn[nH]2)cc1 (racemic) , no commentary.
Result: 53%

Query: Using known records, supply inhibition in vivo at 5 mg/kg for CCCCc1nc2ccc(C3ON4CCCC4C3C(=O)OCC)cc2c(=O)n1Cc1ccc(-c2ccccc2-c2nnn[nH]2)cc1 (centres unmarked)
Result: 0%

Query: # return recorded inhibition in vivo at 5 mg/kg for entry CCCCc1nc2ccc([C@]3(C)C[C@@H]4CCCN4O3)cc2c(=O)n1Cc1ccc(-c2ccccc2-c2nnn[nH]2)cc1 (relative stereo)
Result: 67%

The measurements presented in this section are drawn from patent US5358951A.
